target: T1, human PD-L1 ECD-His (human, UniProt Q9NZQ7 19-238); assay: BLI Octet RED96, biotinylated antibody on SA sensor, hPD-L1-His analyte, 1:1 fit
T1 construct: extracellular domain; Analyte in all SPR and BLI runs; also called hPD-L1_ECD-His; hPD-L1 ECD-His; not shown: His tag
T1 sequence (Q9NZQ7 19-238): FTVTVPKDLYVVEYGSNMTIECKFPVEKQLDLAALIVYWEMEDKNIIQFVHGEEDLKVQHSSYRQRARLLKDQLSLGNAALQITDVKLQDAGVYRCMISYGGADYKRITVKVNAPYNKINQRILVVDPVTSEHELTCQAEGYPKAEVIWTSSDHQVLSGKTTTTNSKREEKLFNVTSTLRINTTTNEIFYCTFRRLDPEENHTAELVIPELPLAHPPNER
Rule: kon under 300000 M⁻¹ s⁻¹ gives Condition not met, otherwise Condition met.

binder	assigned class
PL3#7-43 mtIgG1 (antibody, V domains shown, Antibody was biotinylated (NHS-PEG4-biotin, sites not specified) for the Octet assay of Table 11., N297A mutant human IgG1; also called PL3#7-43 parental mtIgG1) VH: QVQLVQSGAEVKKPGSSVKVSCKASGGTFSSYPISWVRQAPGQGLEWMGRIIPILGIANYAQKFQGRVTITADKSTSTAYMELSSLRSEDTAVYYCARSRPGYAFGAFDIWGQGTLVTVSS VL: QSVVTQPPPVSGAPGQRVTISCTGSSSNVGAGYDVHWYQQLPGTAPKLLIYGNSNRSSGVPDRFSGSKSGTSASLAITGLQAEDEADYYCQTYDSSGSARVVFGGGTKLTVLG	Condition met
PL3#7-19 mtIgG1 (antibody, V domains shown, Antibody was biotinylated (NHS-PEG4-biotin, sites not specified) for the Octet assay of Table 11., N297A mutant human IgG1; also called PL3#7-19 parental mtIgG1) VH: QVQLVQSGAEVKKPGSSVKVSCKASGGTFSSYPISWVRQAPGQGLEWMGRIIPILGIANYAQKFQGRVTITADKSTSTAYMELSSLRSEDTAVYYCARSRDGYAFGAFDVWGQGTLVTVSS VL: QSVVTQPPPVSGAPGQRVTISCTGSSSNIGGGYDVHWYQQLPGTAPKLLIYGNSTRPSGVPDRFSGSKSGTSASLAITGLQAEDEADYYCQTYDSSLSATVVFGGGTKLTVLG	Condition met
PL2#3 mtIgG1 (N297A) (antibody, V domains shown, N297A mutant of human IgG1 Fc backbone) VH: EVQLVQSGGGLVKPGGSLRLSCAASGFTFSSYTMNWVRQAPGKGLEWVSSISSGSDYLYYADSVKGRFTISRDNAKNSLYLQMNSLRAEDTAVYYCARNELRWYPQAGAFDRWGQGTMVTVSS VL: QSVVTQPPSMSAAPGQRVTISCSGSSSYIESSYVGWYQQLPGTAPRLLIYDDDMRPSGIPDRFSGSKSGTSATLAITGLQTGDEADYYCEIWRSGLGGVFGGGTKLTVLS	Condition not met
